Data provenance is PubChem BioAssay (NCI).

# System: M14 melanoma
# ASSAY_REMARKS: NCI tumour cell line growth inhibition, 48 h; in the data active = GI50 below about 0.43 µM; inactive = the rest
Outcome field: choose from T = active, F = inactive

Known results for molecules:
Query :: # lookup: test call for Cc1cn2c(/C=N/N=C(N)N)c(-c3ccsc3)nc2s1
Result :: F

Query :: # lookup: test call for COC(=O)/C(=C\c1c(-c2ccccc2)[nH]c2ccccc12)S(C)(=O)=O
Result :: F

Query :: # lookup: test call for CC1(C)CC(=O)c2c(ccc(C(=O)C[C@@H](N)CO)c2N)O1
Result :: F

Query :: # lookup: test call for COc1ccc2nccc(/C=C/c3ccnc4ccc(OC)cc34)c2c1
Result :: F

Query :: # lookup: test call for O=C(Nc1cccc(-n2cc(-c3ccncc3)c(-c3ccc(O)c(Cl)c3)n2)c1)c1ccc(Cl)c(Cl)c1
Result :: F

Turning now to a further molecule:
Query :: # lookup: test call for N=C(N)SCc1ccc([N+](=O)[O-])cc1[N+](=O)[O-]
Result :: F

====

# Test system: PC-3 prostate
# ASSAY_REMARKS: NCI tumour cell line growth inhibition, 48 h
MEASURED_ATTRIBUTE: GI50

Here are 3 compounds together with their reported answers.
Query :: What measured GI50 goes with COc1ccc(Oc2cc(NCCC(F)(F)F)c3ncc(-c4ccc(C(=O)NC5CC5)c(C)c4)n3n2)c(F)c1F ?
Result :: 2160 nM

Query :: What measured GI50 goes with COc1ccc(C(=O)OC2C(OC3C(O)COC(O[C@H]4C[C@H]5[C@@H]6CC=C7C[C@@H](O)CC[C@]7(C)[C@H]6CC[C@]5(C)[C@H]4[C@H](C)C(=O)CCC(C)C)C3OC(C)=O)OCC(O)C2O)cc1 (some centres undefined) ?
Result :: < 3 nM

Query :: What measured GI50 goes with Oc1c(CNCCNCc2cc(Cl)cc(Cc3ccccc3)c2O)cc(Cl)cc1Cc1ccccc1 ?
Result :: 620 nM

Next:
Query :: What measured GI50 goes with CC(OC(=O)N(N(CCCl)S(C)(=O)=O)S(C)(=O)=O)c1ccc([N+](=O)[O-])cc1 (centres undefined) ?
Result :: > 66700 nM

====

# Tested on: NCI-H226 lung
# ASSAY_REMARKS: NCI tumour cell line growth inhibition, 48 h
MEASURED_ATTRIBUTE: TGI (µM)
The answer is to be given in µM; state only the numeric part.

Query :: Provide the documented TGI with NCI-H226 lung as the system for CC(=O)OC(=C(C#N)C#N)c1nccnc1C(C)=O
Result :: 13.7

Query :: Provide the documented TGI with NCI-H226 lung as the system for COC(=O)[C@@H](OC)[C@@H]1Cc2cc3cc(OC4CC(OC5CC(O)C(O)C(C)O5)C(O)C(C)O4)c(C)c(O)c3c(O)c2C(=O)[C@H]1OC1CC(OC2CC(OC3CC(C)(O)C(O)C(C)O3)C(O)C(C)O2)C(O)C(C)O1 (stereo partly drawn)
Result :: 0.125

Query :: Provide the documented TGI with NCI-H226 lung as the system for CCCCS(=O)CC(CO)NC(=O)/C=C/c1c(C)[nH]c(=O)[nH]c1=O (stereo not drawn)
Result :: 34

Query :: Provide the documented TGI with NCI-H226 lung as the system for O=[N+]([O-])c1ccc(O)c(C=NCC2CCCN3CCCCC23)c1 (stereo not drawn)
Result :: 89.9

====

# Tested on: SF-295 CNS
# ASSAY_REMARKS: NCI tumour cell line growth inhibition, 48 h
MEASURED_ATTRIBUTE: TGI

Query :: What measured TGI goes with C/C(=C1\C(=O)C(c2ccccc2)N(c2ccccc2)C1=O)c1ccc(Cl)cc1 (centres undefined) ?
Result :: 74.9 µM

Query :: What measured TGI goes with O=C(Sc1sc(=S)sc1SC(=O)c1ccccc1)c1ccccc1 ?
Result :: > 100 µM

Query :: What measured TGI goes with CC(=O)c1cccc(NC(=O)c2ccc(NC3=C(Cl)C(=O)N(Cc4ccccc4)C3=O)cc2)c1 ?
Result :: 47.8 µM

---
Query :: What measured TGI goes with Nc1nc(-c2cc(-c3cccc4ccccc34)nc(N)n2)cc(-c2cccc3ccccc23)n1 ?
Result :: > 100 µM

Query :: What measured TGI goes with CCN(CC)CCC(=O)/C=C/c1ccc(C)cc1 ?
Result :: 34.6 µM

Query :: What measured TGI goes with COc1ccc2c(c1)CCN1C3=C(CCC3)C(=O)C[C@@H]21 ?
Result :: > 100 µM

Query :: What measured TGI goes with CC#CCCCC1(C)CCCNC1=S (centres undefined) ?
Result :: > 10 µM

Query :: What measured TGI goes with Cn1c(=O)c2nc(NCCO)cnc2n(C)c1=O ?
Result :: > 100 µM

Query :: What measured TGI goes with COc1ccc(-c2nc3c(nc2-c2ccc(OC)cc2)N(C)S(=O)(=O)N=C3N)cc1 ?
Result :: 84.3 µM

Query :: What measured TGI goes with COc1cc2ccc(CC(N)=O)cc2cc1OC ?
Result :: > 100 µM

Query :: What measured TGI goes with COc1ccc(/C=C2\CN(C)CC3C2=NN(c2ccccc2)C3c2ccc(OC)cc2)cc1 (centres undefined) ?
Result :: > 100 µM

====

# Tested on: OVCAR-8 ovarian
# ASSAY_REMARKS: NCI tumour cell line growth inhibition, 48 h
Measured TGI of individual entries

Here are 5 molecules together with their reported answers.
Query :: What measured TGI goes with O=Nc1c(O)c2ccccc2c2ccccc12 ?
Result :: 3.88 µM

Query :: What measured TGI goes with COc1ccc2nccc(/C=C/c3ccnc4ccc(OC)cc34)c2c1 ?
Result :: > 100 µM

Query :: What measured TGI goes with CCc1ncnc2cc(OCC3CO3)c(OC)cc12 (configuration not stated) ?
Result :: 14.3 µM

Query :: What measured TGI goes with CC(C)(C)OC(=O)NCCCCCCCCCCn1c2c(c3ccccc3c1=O)C(=O)c1ccccc1-2 ?
Result :: > 100 µM

Query :: What measured TGI goes with Cc1ncc(-c2ccnc(Nc3ccc(S(C)(=O)=O)cc3)n2)n1C(C)C ?
Result :: > 10 µM

---
Query :: What measured TGI goes with S=C(c1c[nH]c2ccccc12)N1CCCCC1 ?
Result :: > 100 µM

Query :: What measured TGI goes with Cc1cc2c(=O)[nH]c(N)nc2nc1C ?
Result :: > 100 µM

Query :: What measured TGI goes with CCOP(C)(=O)/C(Cc1ccc(OC)c(OC)c1)=N\O (configuration not stated) ?
Result :: > 100 µM

Query :: What measured TGI goes with Nc1[nH]c(=S)c2c(N)n[nH]c2c1C(=O)Nc1ccc(Cl)cc1 ?
Result :: > 100 µM

Query :: What measured TGI goes with CC(=O)C1=C(C)N(c2ccccc2)C2(O)C=CC(=O)C3=C(O)c4ccccc4C(=O)C312 (configuration not stated) ?
Result :: 34.3 µM

Query :: What measured TGI goes with Cc1c(-c2ccc(O)c(O)c2)oc(=O)c2c(O)cccc12 ?
Result :: > 100 µM

Query :: What measured TGI goes with CC12CC(Sc3ccccc3N1)c1ccccc1O2 (configuration not stated) ?
Result :: 33.3 µM

Query :: What measured TGI goes with Cc1ccc(NC(=O)/C(=N\NC(N)=O)c2c(O)c3ccccc3[nH]c2=O)cc1 ?
Result :: > 100 µM

====

Measured TGI of individual entries
# Test system: SK-OV-3 ovarian
# ASSAY_REMARKS: NCI tumour cell line growth inhibition, 48 h

Query :: What measured TGI goes with Cc1ccc2c(CC(=O)O)cc(=O)oc2c1 ?
Result :: > 100 µM

Query :: What measured TGI goes with CC1(C)CC(=O)c2c(ccc(C(=O)C[C@@H](N)CO)c2N)O1 ?
Result :: > 100 µM

Query :: What measured TGI goes with COc1ccc(/C=C2\CN(C)CC3C2=NN(c2ccccc2)C3c2ccc(OC)cc2)cc1 (stereo not given) ?
Result :: 55.1 µM

Query :: What measured TGI goes with Cc1cc2c(=O)cc(-c3ccc(F)cc3)oc2c(C(=O)O)c1C ?
Result :: > 100 µM

Query :: What measured TGI goes with O=C1C=C2CC[C@H]3[C@@H]4CC[C@H](Oc5c6ccccc6nc6ccccc56)[C@H]4CC[C@@H]3[C@H]2CC1 ?
Result :: > 100 µM

Query :: What measured TGI goes with Cc1nnc([C@@]2(C)CC[C@H]3[C@@H](CCC4=CC(=O)CC[C@@]43C)[C@@H]2CC#N)o1 ?
Result :: > 100 µM

Query :: What measured TGI goes with CCCCc1c2c(nc3c1CC/C(=C\c1ccc([N+](=O)[O-])cc1)C3=O)CCCC2 ?
Result :: 3.91 µM

Query :: What measured TGI goes with NC(=O)CNC(=O)[C@@H]1C[C@@H](OCCC(=O)O)CN1C(=O)OCc1ccccc1 ?
Result :: > 100 µM

Query :: What measured TGI goes with COc1cc2ccc(CC(N)=O)cc2cc1OC ?
Result :: > 100 µM

Query :: What measured TGI goes with Cc1cc(NS(=O)(=O)c2ccc(Nc3c4ccccc4nc4c(C(=O)Nc5ccc(S(=O)(=O)N=C(N)N)cc5)ccc(Cl)c34)cc2)no1 ?
Result :: 95.4 µM

---
Query :: What measured TGI goes with CN(C)CCNc1nc2ccccc2c2occc12 ?
Result :: > 100 µM

Query :: What measured TGI goes with CCCCN1CCN(c2ccc3nc(-c4ccc5nc(-c6ccc(OCC)c(OCC)c6)[nH]c5c4)[nH]c3c2)CC1 ?
Result :: 3.27 µM

Query :: What measured TGI goes with CCOC(=O)N1N(c2ccccc2)C(=O)C1(c1ccccc1)c1ccccc1 ?
Result :: > 100 µM
